Where do these numbers come from? They come from BigSolDB 2.1.

conditions: in acetonitrile, 318.2 K
MEASURED METRIC: solubility (mole fraction)
Answers are plain numbers.

Consider the compound "C[C@@H]1CC[C@@]2(OC1)O[C@H]1C[C@H]3[C@@H]4CC=C5C[C@@H](O)CC[C@]5(C)[C@H]4CC[C@]3(C)[C@H]1[C@@H]2C" and give its measured solubility (mole fraction). 0.0151

---

Exercise: for every item that follows, state its recorded solubility (mole fraction).
details: in n-dodecane, 328.2 K
Answers are plain numbers.

[[record]]
chemical_string = "C[C@]12CC[C@@H]3c4ccc(O)cc4CC[C@H]3[C@@H]1C[C@@H](O)[C@@H]2O"
measured_metric = "solubility (mole fraction)"
observed_result = 0.00285


// solubility (mole fraction) lookup, key: "C[C@@H]1CC[C@@]2(OC1)O[C@H]1C[C@H]3[C@@H]4CC=C5C[C@@H](O)CC[C@]5(C)[C@H]4CC[C@]3(C)[C@H]1[C@@H]2C" 0.00105

---

conditions: in n-nonanol, 328.2 K
MEASURED METRIC: solubility (mole fraction)
Answers are plain numbers.

[[record]]
chemical_string = "C[C@]12CC[C@@H]3c4ccc(O)cc4CC[C@H]3[C@@H]1C[C@@H](O)[C@@H]2O"
observed_result = 0.0199


In the following, a different compound is considered.
If you can, please state the reported solubility (mole fraction) value of "C[C@@H]1CC[C@@]2(OC1)O[C@H]1C[C@H]3[C@@H]4CC=C5C[C@@H](O)CC[C@]5(C)[C@H]4CC[C@]3(C)[C@H]1[C@@H]2C" . 0.0155

---

settings: in water, 328.2 K
MEASURED METRIC: solubility (mole fraction)
Numbers only.

Look up solubility (mole fraction): "C[C@]12CC[C@@H]3c4ccc(O)cc4CC[C@H]3[C@@H]1C[C@@H](O)[C@@H]2O" 0.000803

---

Can you tell me solubility (mole fraction) for the items I'm about to list?
details: in NMP, 318.2 K
Numbers only.

[[record]]
chemical_string = "C[C@]12CC[C@@H]3c4ccc(O)cc4CC[C@H]3[C@@H]1C[C@@H](O)[C@@H]2O"
measured_metric = "solubility (mole fraction)"
observed_result = 0.00364


Turning to the following compound.
Which solubility (mole fraction) value is on record for "C[C@@H]1CC[C@@]2(OC1)O[C@H]1C[C@H]3[C@@H]4CC=C5C[C@@H](O)CC[C@]5(C)[C@H]4CC[C@]3(C)[C@H]1[C@@H]2C" ? 0.0178

---

Exercise: state measured solubility (mole fraction) for each of the molecules provided.
settings: in n-nonanol, 318.2 K
One number for each entry.

[[record]]
chemical_string = "C[C@]12CC[C@@H]3c4ccc(O)cc4CC[C@H]3[C@@H]1C[C@@H](O)[C@@H]2O"
observed_result = 0.0147


Shift focus to the following entry.
Report solubility (mole fraction) for "C[C@@H]1CC[C@@]2(OC1)O[C@H]1C[C@H]3[C@@H]4CC=C5C[C@@H](O)CC[C@]5(C)[C@H]4CC[C@]3(C)[C@H]1[C@@H]2C" please. 0.0132

---

details: in NMP, 313.2 K
Give measured solubility (mole fraction) for each item. Keep answers brief.

[[record]]
chemical_string = "C[C@@H]1CC[C@@]2(OC1)O[C@H]1C[C@H]3[C@@H]4CC=C5C[C@@H](O)CC[C@]5(C)[C@H]4CC[C@]3(C)[C@H]1[C@@H]2C"
measured_metric = "solubility (mole fraction)"
observed_result = 0.0163


Need solubility (mole fraction) of "C[C@]12CC[C@@H]3c4ccc(O)cc4CC[C@H]3[C@@H]1C[C@@H](O)[C@@H]2O" , thanks. 0.00275

---

settings: in DMF, 318.2 K
MEASURED METRIC: solubility (mole fraction)

[[record]]
chemical_string = "C[C@]12CC[C@@H]3c4ccc(O)cc4CC[C@H]3[C@@H]1C[C@@H](O)[C@@H]2O"
measured_metric = "solubility (mole fraction)"
observed_result = 0.00958


Look up solubility (mole fraction) for this compound: "C[C@@H]1CC[C@@]2(OC1)O[C@H]1C[C@H]3[C@@H]4CC=C5C[C@@H](O)CC[C@]5(C)[C@H]4CC[C@]3(C)[C@H]1[C@@H]2C" 0.00587

---

settings: in acetonitrile, 313.2 K
MEASURED METRIC: solubility (mole fraction)
One number for each entry.

// query solubility (mole fraction) value for entry "C[C@@H]1CC[C@@]2(OC1)O[C@H]1C[C@H]3[C@@H]4CC=C5C[C@@H](O)CC[C@]5(C)[C@H]4CC[C@]3(C)[C@H]1[C@@H]2C" 0.0125

---

conditions: in morpholine-4-carbaldehyde, 303.2 K
MEASURED METRIC: solubility (mole fraction)
One number for each entry.

[[record]]
chemical_string = "C[C@]12CC[C@@H]3c4ccc(O)cc4CC[C@H]3[C@@H]1C[C@@H](O)[C@@H]2O"
observed_result = 0.000652


// below: solubility (mole fraction) requested for another compound
Quick check: solubility (mole fraction) of "C[C@@H]1CC[C@@]2(OC1)O[C@H]1C[C@H]3[C@@H]4CC=C5C[C@@H](O)CC[C@]5(C)[C@H]4CC[C@]3(C)[C@H]1[C@@H]2C" ? 0.00976

---

conditions: in sec-butanol, 323.2 K
Please respond with reported solubility (mole fraction) for every item in the list.
Give bare numbers.

[[record]]
chemical_string = "C[C@@H]1CC[C@@]2(OC1)O[C@H]1C[C@H]3[C@@H]4CC=C5C[C@@H](O)CC[C@]5(C)[C@H]4CC[C@]3(C)[C@H]1[C@@H]2C"
measured_metric = "solubility (mole fraction)"
observed_result = 0.00253


Now look at this one.
Requested field: solubility (mole fraction). Item: "C[C@]12CC[C@@H]3c4ccc(O)cc4CC[C@H]3[C@@H]1C[C@@H](O)[C@@H]2O" 0.00668

---

conditions: in n-hexadecane, 323.2 K
MEASURED METRIC: solubility (mole fraction)
Give bare numbers.

Need solubility (mole fraction) for each of these compounds.
1. C[C@@H]1CC[C@@]2(OC1)O[C@H]1C[C@H]3[C@@H]4CC=C5C[C@@H](O)CC[C@]5(C)[C@H]4CC[C@]3(C)[C@H]1[C@@H]2C
2. C[C@]12CC[C@@H]3c4ccc(O)cc4CC[C@H]3[C@@H]1C[C@@H](O)[C@@H]2O

0.00171
0.00335

---

I'd appreciate it if you could supply solubility (mole fraction) values for the items below.
conditions: in DMF, 298.2 K
Answers are plain numbers.

[[record]]
chemical_string = "C[C@]12CC[C@@H]3c4ccc(O)cc4CC[C@H]3[C@@H]1C[C@@H](O)[C@@H]2O"
measured_metric = "solubility (mole fraction)"
observed_result = 0.00158


The record that follows has no solubility (mole fraction) shown yet.
Quick one: solubility (mole fraction) for "C[C@@H]1CC[C@@]2(OC1)O[C@H]1C[C@H]3[C@@H]4CC=C5C[C@@H](O)CC[C@]5(C)[C@H]4CC[C@]3(C)[C@H]1[C@@H]2C" ? 0.00159

---

settings: in 2-aminoethanol, 323.2 K
Provide the recorded solubility (mole fraction) for the entries that follow.
Answers are plain numbers.

[[record]]
chemical_string = "C[C@@H]1CC[C@@]2(OC1)O[C@H]1C[C@H]3[C@@H]4CC=C5C[C@@H](O)CC[C@]5(C)[C@H]4CC[C@]3(C)[C@H]1[C@@H]2C"
observed_result = 0.011


Shifting focus to the molecule that follows.
I would be grateful if you could share the reported solubility (mole fraction) for "C[C@]12CC[C@@H]3c4ccc(O)cc4CC[C@H]3[C@@H]1C[C@@H](O)[C@@H]2O" . 0.0314

---

details: in n-nonanol, 293.2 K
Please go through the items and note down their solubility (mole fraction).
Give bare numbers.

[[record]]
chemical_string = "C[C@@H]1CC[C@@]2(OC1)O[C@H]1C[C@H]3[C@@H]4CC=C5C[C@@H](O)CC[C@]5(C)[C@H]4CC[C@]3(C)[C@H]1[C@@H]2C"
measured_metric = "solubility (mole fraction)"
observed_result = 0.0067


Shift focus to the following entry.
Entry "C[C@]12CC[C@@H]3c4ccc(O)cc4CC[C@H]3[C@@H]1C[C@@H](O)[C@@H]2O" has what solubility (mole fraction)? 0.0074

---

conditions: in acetonitrile, 328.2 K
MEASURED METRIC: solubility (mole fraction)

Form field: reported solubility (mole fraction) of "C[C@@H]1CC[C@@]2(OC1)O[C@H]1C[C@H]3[C@@H]4CC=C5C[C@@H](O)CC[C@]5(C)[C@H]4CC[C@]3(C)[C@H]1[C@@H]2C" 0.0221

---

Kindly state solubility (mole fraction) for each of the entries shown.
details: in n-nonanol, 303.2 K
Numbers only.

# per-item lookup of solubility (mole fraction); items listed below
1. C[C@@H]1CC[C@@]2(OC1)O[C@H]1C[C@H]3[C@@H]4CC=C5C[C@@H](O)CC[C@]5(C)[C@H]4CC[C@]3(C)[C@H]1[C@@H]2C
2. C[C@]12CC[C@@H]3c4ccc(O)cc4CC[C@H]3[C@@H]1C[C@@H](O)[C@@H]2O

1. 0.00965
2. 0.0104
